molecular target: ABCE1 ATP-binding cassette sub-family E member 1 (Homo sapiens); construct: isoTOP-ABPP experiments performed in cell lysates (in vitro); endogenous in cells; host or cells: soluble proteome of human cancer cell lines (MDA-MB-231, Ramos, Jurkat); assay: competitive isoTOP-ABPP; conditions: P61221_K191; 50 uM, 231 sol, in vitro
readout label: R value (DMSO/fragment) for probe 1 labeling

Illustrative cases are given below, each with its answer.
compound	recorded number
COc1cc(CCC(=O)Oc2c(F)c(F)c(F)c(F)c2F)cc(OC)c1OC	1.3
O=C(Oc1c(F)c(F)c(F)c(F)c1F)C(c1ccccc1)c1ccccc1 [fragment 20, Pentafluorophenyl 2,2-diphenylacetate]	0.9
O=C(Oc1c(F)c(F)c(F)c(F)c1F)c1cc(C(F)(F)F)cc(C(F)(F)F)c1	1.0

1 = Cn1cc(CC(=O)Oc2c(F)c(F)c(F)c(F)c2F)c2ccccc21
2 = O=C(CCc1cn(-c2ccccc2)nc1-c1ccccc1)Oc1c(F)c(F)c(F)c(F)c1F
Query block: Which is greater in R value (DMSO/fragment) for probe 1 labeling, the first item 1 or the second item 2 ? When you have decided, please share the label of that item.
Result block: 1

* * *

target: SLC25A5 ADP/ATP translocase 2 (Homo sapiens, UniProt P05141); construct: isoTOP-ABPP experiments performed in cell lysates (in vitro); endogenous in cells; host or cells: MDA-MB-231 soluble lysate; assay: competitive isoTOP-ABPP; format: binding; details: 50 uM_231_sol_in vitro
Sequence (P05141 whole entry): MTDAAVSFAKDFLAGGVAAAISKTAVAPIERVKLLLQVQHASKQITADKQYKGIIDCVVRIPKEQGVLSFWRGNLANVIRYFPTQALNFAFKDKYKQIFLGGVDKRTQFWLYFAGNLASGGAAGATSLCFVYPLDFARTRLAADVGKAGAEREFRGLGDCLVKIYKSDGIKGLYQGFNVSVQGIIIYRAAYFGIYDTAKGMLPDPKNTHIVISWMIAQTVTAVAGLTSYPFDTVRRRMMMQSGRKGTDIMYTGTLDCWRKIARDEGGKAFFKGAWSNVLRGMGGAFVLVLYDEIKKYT
readout label: isoTOP-ABPP ratio, lysine P05141_K23

Below are worked cases with known answers.
molecule	isoTOP-ABPP ratio, lysine P05141_K23
O=C(CCc1ccc2c(c1)OCO2)Oc1ccc([N+](=O)[O-])cc1[N+](=O)[O-]	1.2
N#Cc1ccc(C(=O)Oc2ccc([N+](=O)[O-])cc2[N+](=O)[O-])cc1 [fragment 44, 2,4-Dinitrophenyl 4-cyanobenzoate]	1.1

I = O=C(Oc1c(F)c(F)cc(F)c1F)c1cc(C(F)(F)F)cc(C(F)(F)F)c1
II = O=C(Oc1c(F)c(F)c(C(F)(F)F)c(F)c1F)c1cc(C(F)(F)F)cc(C(F)(F)F)c1
Query block: Would you kindly point out which of I and II has the smaller isoTOP-ABPP ratio, lysine P05141_K23 figure? Let me know the label of the one you choose.
Result block: I

* * *

target: PSME3 Proteasome activator complex subunit 3 (Homo sapiens, UniProt P61289); construct: isoTOP-ABPP experiments performed in cell lysates (in vitro); endogenous in cells; host or cells: soluble proteome of human cancer cell lines (MDA-MB-231, Ramos, Jurkat); assay: competitive isoTOP-ABPP; assay type: binding; set-up: key: R = MS1 peak area ratio, DMSO (heavy) / compound-treated (light); details: 50 uM, 231 sol, in vitro
Sequence (P61289 whole entry, one chain of several): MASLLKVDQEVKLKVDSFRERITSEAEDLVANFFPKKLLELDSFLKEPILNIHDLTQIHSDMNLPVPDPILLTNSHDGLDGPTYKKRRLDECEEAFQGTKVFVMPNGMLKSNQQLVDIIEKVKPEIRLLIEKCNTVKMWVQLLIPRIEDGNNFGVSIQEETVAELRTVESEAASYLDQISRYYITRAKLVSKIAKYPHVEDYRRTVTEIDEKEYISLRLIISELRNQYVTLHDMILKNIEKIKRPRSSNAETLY
readout label: isoTOP-ABPP reactivity ratio at lysine P61289_K237

molecule	recorded number
O=C(Oc1ccc([N+](=O)[O-])cc1[N+](=O)[O-])C(c1ccccc1)c1ccccc1 [fragment 30, 2,4-Dinitrophenyl 2,2-diphenylacetate]	4.3

I = O=C(Oc1c(F)c(F)c(F)c(F)c1F)c1ccc2ccccc2n1
II = O=C(Oc1c(F)c(F)c(F)c(F)c1F)C1CCN(C(=O)OCc2ccccc2)CC1
III = O=C(CN1C(=O)c2ccccc2C1=O)Oc1c(F)c(F)c(F)c(F)c1F
Query block: Please list the entries, largest isoTOP-ABPP reactivity ratio at lysine P61289_K237 first. In plain terms: list the labels in the order you were asked to.
Result block: III, I, II
(III: 0.8, I: 0.5, II: 0.2)

* * *

target: AP1G1 AP-1 complex subunit gamma-1 (Homo sapiens); construct: isoTOP-ABPP experiments performed in cell lysates (in vitro); endogenous in cells; host or cells: MDA-MB-231 soluble lysate; test: competitive isoTOP-ABPP; format: binding; conditions: O43747_K214; 50 uM, 231 sol, in vitro
Sequence (O43747 whole entry, the tested form may be a part, one chain of several): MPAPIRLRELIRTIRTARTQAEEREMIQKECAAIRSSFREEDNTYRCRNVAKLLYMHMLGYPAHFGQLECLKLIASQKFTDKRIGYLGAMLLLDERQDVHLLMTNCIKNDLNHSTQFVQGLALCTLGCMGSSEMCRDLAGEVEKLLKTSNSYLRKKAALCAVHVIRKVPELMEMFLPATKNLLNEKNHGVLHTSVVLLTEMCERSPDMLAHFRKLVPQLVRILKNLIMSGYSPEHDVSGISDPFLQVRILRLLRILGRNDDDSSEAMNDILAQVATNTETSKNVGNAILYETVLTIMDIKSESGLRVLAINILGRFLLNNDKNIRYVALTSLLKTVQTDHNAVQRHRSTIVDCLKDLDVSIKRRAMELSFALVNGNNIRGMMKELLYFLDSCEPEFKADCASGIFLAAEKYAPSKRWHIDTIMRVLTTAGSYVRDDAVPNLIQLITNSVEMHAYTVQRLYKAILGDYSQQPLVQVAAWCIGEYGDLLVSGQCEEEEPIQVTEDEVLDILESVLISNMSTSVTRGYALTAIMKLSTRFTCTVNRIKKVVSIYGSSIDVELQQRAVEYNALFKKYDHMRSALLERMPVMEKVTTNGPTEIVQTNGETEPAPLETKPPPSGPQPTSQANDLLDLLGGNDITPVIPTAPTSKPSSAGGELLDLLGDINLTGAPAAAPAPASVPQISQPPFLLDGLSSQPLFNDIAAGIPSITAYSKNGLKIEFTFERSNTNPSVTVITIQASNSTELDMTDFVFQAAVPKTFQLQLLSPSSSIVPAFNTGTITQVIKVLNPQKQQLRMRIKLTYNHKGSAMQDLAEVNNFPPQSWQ
readout label: R value (DMSO/fragment) for probe 1 labeling

compound	recorded number
COc1cc(CCC(=O)Oc2c(F)c(F)c(F)c(F)c2F)cc(OC)c1OC	1.1
O=C(CCc1cn(-c2ccccc2)nc1-c1ccccc1)Oc1c(F)c(F)c(F)c(F)c1F	1.0
O=C(Oc1c(F)c(F)c(F)c(F)c1F)c1cc(C(F)(F)F)cc(C(F)(F)F)c1	0.9
Cn1cc(CC(=O)Oc2c(F)c(F)c(F)c(F)c2F)c2ccccc21	1.1
O=C(Oc1c(F)c(F)c(F)c(F)c1F)C(c1ccccc1)c1ccccc1 [fragment 20, Pentafluorophenyl 2,2-diphenylacetate]	0.9

* * *

target: GSTT2B Glutathione S-transferase theta-2B (Homo sapiens); construct: isoTOP-ABPP experiments performed in cell lysates (in vitro); endogenous in cells; host or cells: MDA-MB-231 soluble lysate; assay: competitive isoTOP-ABPP; assay type: binding; conditions: 50 uM_231_sol_in vitro
Sequence (P0CG30 whole entry): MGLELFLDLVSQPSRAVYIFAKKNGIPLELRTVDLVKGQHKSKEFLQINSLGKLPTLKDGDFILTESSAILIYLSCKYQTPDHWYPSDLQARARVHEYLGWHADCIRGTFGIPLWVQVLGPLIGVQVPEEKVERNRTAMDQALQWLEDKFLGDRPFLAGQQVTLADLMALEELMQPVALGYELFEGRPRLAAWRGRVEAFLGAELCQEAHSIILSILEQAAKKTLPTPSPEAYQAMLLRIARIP
readout label: isoTOP-ABPP ratio, lysine P0CG30_K53

molecule	readout label	recorded number
O=C(Oc1c(F)c(F)cc(F)c1F)c1cc(C(F)(F)F)cc(C(F)(F)F)c1	isoTOP-ABPP ratio, lysine P0CG30_K53	0.9
O=C(CCc1ccc2c(c1)OCO2)Oc1ccc([N+](=O)[O-])cc1[N+](=O)[O-]	isoTOP-ABPP ratio, lysine P0CG30_K53	0.5
N#Cc1ccc(C(=O)Oc2ccc([N+](=O)[O-])cc2[N+](=O)[O-])cc1 [fragment 44, 2,4-Dinitrophenyl 4-cyanobenzoate]	isoTOP-ABPP ratio, lysine P0CG30_K53	0.6
O=C(Oc1c(F)c(F)c(C(F)(F)F)c(F)c1F)c1cc(C(F)(F)F)cc(C(F)(F)F)c1	isoTOP-ABPP ratio, lysine P0CG30_K53	0.6
NC(=O)c1cc(C(F)(F)F)cc(C(F)(F)F)c1 [fragment 51, reference compound]	isoTOP-ABPP ratio, lysine P0CG30_K53	0.7
O=C(ON1C(=O)CCC1=O)c1cc(C(F)(F)F)cc(C(F)(F)F)c1	isoTOP-ABPP ratio, lysine P0CG30_K53	1.8

* * *

Target: PFKL 6-phosphofructokinase, liver type (Homo sapiens)
Construct: isoTOP-ABPP experiments performed in cell lysates (in vitro); endogenous in cells; host or cells: soluble proteome of human cancer cell lines (MDA-MB-231; Ramos and Jurkat also prepared)
Sequence (P17858 1-780): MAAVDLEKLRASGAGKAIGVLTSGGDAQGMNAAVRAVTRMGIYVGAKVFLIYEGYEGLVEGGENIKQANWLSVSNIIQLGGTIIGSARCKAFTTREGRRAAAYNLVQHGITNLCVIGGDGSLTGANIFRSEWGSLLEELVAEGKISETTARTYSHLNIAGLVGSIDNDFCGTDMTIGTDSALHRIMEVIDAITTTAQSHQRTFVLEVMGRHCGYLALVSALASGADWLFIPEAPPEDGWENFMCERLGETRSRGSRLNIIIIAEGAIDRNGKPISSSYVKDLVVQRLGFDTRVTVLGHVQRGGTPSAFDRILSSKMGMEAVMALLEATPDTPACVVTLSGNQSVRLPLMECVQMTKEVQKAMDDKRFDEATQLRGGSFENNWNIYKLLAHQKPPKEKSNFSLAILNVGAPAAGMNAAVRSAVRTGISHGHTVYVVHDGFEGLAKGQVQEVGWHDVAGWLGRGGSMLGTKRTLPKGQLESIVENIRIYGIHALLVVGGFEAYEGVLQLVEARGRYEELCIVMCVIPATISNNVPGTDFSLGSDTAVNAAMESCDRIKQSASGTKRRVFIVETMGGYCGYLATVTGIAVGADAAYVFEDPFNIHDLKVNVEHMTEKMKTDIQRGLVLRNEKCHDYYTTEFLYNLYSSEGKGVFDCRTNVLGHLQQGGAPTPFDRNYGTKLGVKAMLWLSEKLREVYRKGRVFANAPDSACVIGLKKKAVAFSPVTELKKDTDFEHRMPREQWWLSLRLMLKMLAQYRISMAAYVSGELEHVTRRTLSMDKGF
Test: competitive isoTOP-ABPP
Format: binding
Conditions: 50 uM_231_sol_in vitro
readout label: isoTOP-ABPP ratio, lysine P17858_K315

compound	isoTOP-ABPP ratio, lysine P17858_K315
O=C(CCc1ccc2c(c1)OCO2)Oc1ccc([N+](=O)[O-])cc1[N+](=O)[O-]	1.8
N#Cc1ccc(C(=O)Oc2ccc([N+](=O)[O-])cc2[N+](=O)[O-])cc1 [fragment 44, 2,4-Dinitrophenyl 4-cyanobenzoate]	0.8
O=C(ON1C(=O)CCC1=O)c1cc(C(F)(F)F)cc(C(F)(F)F)c1	0.6

P = O=C(Oc1c(F)c(F)cc(F)c1F)c1cc(C(F)(F)F)cc(C(F)(F)F)c1
Q = O=C(Oc1c(F)c(F)c(C(F)(F)F)c(F)c1F)c1cc(C(F)(F)F)cc(C(F)(F)F)c1
Query block: Which of the two gives a bigger number for isoTOP-ABPP ratio, lysine P17858_K315: P or Q ? In your reply, give the label of the chosen option.
Result block: Q
